# target: Gonadotropin-releasing hormone receptor (Homo sapiens, UniProt P30968)
# Sequence (P30968 whole entry): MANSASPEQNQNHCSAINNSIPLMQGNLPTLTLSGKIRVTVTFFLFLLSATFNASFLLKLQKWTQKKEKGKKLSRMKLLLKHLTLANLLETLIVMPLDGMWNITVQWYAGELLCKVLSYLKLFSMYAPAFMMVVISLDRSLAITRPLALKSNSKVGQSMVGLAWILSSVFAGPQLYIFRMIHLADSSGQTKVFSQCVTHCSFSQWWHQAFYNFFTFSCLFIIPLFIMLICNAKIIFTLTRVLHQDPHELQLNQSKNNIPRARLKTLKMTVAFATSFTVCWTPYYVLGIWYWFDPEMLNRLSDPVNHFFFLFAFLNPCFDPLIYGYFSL
# measurement.description: Ability to inhibit [125I-Tyr5,DLeu6,NMeLeu7,Pro9-NEt]GnRH agonist binding to the cloned human Gonadotropin-releasing hormone receptor was evaluated
value.type: Ki (nM)

> print(dat)
                            chemical.string  value.type  measured.value
1  CCCC(=O)Nc1ccc(-c2nc3n(Cc4ccccc4F)cc(C(=O)OC(CC)CC)c(=O)n3c2CN(C)Cc2ccco2)cc1          Ki              29
2  CCCC(=O)Nc1ccc(-c2nc3n(Cc4ccccc4F)cc(C(=O)OC(CC)CC)c(=O)n3c2CN2CCCC2)cc1          Ki            2200

[P] CCCC(=O)Nc1ccc(-c2nc3n(Cc4ccccc4F)cc(C(=O)OC(CC)CC)c(=O)n3c2CN2CCc3ccccc3C2)cc1
[Q] CCC(CC)OC(=O)c1cn(Cc2ccccc2F)c2nc(-c3ccc(NC(=O)C(C)C)cc3)c(CN(C)Cc3ccccc3)n2c1=O
Given P and Q , report the one with the higher recorded Ki. To answer, give the label that identifies your chosen option.
P
(P: 290 nM, Q: 41 nM)

###

# measurement.description: Oral bioavailability in rat
# Format: ADME, organism-based
# run.conditions: in vivo
value.type: bioavailability (%)
Numeric only. Scale: %

GET /values?readout=bioavailability&item= "CC[C@H]1OC(=O)[C@H](C)[C@@H](OC(=O)N2C(=O)OC[C@@H]2C)[C@H](C)[C@@H](O[C@@H]2O[C@H](C)C[C@H](N(C)CC3CC3)[C@H]2O)[C@@](C)(OC)C[C@@H](C)C(=O)[C@H](C)[C@H]2N(CCc3ccc(Cl)c(Cl)c3)C(=O)O[C@]12C"
15.2
